Test system: HCT116 cells
Experiment: ATPlite cell viability after drug treatment, HCT116 cells in cell-line or organoid culture media
Format: cell-based
Settings: HCT116 in Ex2-2; average; read-out: IC50 (μM) Average
endpoint: IC50

[Q] State its IC50: "O=C1[O][Pt]2([NH][C@@H]3CCCC[C@H]3[NH]2)[O]C1=O"
[A] 22.5 µM

* * *

System: HCT116 cells
Assay: ATPlite cell viability after drug treatment, HCT116 cells in cell-line or organoid culture media
Assay type: cell-based
Details: HCT116 in Ex2-4; 3rd; read-out: IC50 (μM) 3rd
Procedure: Advanced DMEM/F12+++ (hereinafter referred to as “Ad/DF+++”) was used to produce colorectal cancer organoids. Ad/DF+++ was refrigerated at 4° C. until use, and was used in a cold state during cell washing. […] If the organoids were expanded as needed for the experiment, the medium was carefully removed, taking care not to touch the Matrigel. […] After suspending the pellet in Ad/DF+++, the cells were counted and diluted with medium according to the required number of cells. […]
endpoint: IC50 (µM)
// note: answer is a bare numeric in µM

[Q] State its IC50: O=C1[O][Pt]2([NH][C@@H]3CCCC[C@H]3[NH]2)[O]C1=O [oxaliplatin]
[A] 26.9
